Entry source: patent US9732077B2

Molecular target: human orexin-2 receptor (Homo sapiens, UniProt O43614)
Construct: expressed in transfected cells; host or cells: CHO cells (G418 selection)
Sequence (O43614 whole entry): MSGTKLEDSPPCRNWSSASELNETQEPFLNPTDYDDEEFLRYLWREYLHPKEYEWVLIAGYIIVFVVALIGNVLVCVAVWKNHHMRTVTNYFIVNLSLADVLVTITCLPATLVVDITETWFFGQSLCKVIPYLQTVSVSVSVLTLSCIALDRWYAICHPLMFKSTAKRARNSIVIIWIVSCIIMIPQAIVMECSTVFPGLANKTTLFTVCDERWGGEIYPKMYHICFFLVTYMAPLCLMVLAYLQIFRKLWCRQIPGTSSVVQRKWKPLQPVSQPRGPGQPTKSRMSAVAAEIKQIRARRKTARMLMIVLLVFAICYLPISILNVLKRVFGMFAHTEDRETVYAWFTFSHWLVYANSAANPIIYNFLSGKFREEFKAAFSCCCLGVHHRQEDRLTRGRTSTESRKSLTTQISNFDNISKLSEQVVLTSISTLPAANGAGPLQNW
Assay: OX2R FLIPR Ca flux assay (CHO cells)
Assay type: cell-based
Details: ratio of OX1R FLIPR to OX2R FLIPR
// reported Fold Selectivity OX2R vs. OX1R per item
Measure: Fold Selectivity OX2R vs. OX1R (fold)

Compound	Measure	Readout Number
Cc1oc(N2CCCN(C(=O)c3ccccc3OC(F)F)CC2)nc1C(C)(C)O [Example 12]	Fold Selectivity OX2R vs. OX1R	332
Cc1oc(N2CCCN(C(=O)c3ccccc3OC(F)(F)F)CC2)nc1C(C)(C)O [Example 15]	Fold Selectivity OX2R vs. OX1R	137
Cc1cc(C)nc(N2CCCN(C(=O)c3ccc(F)cc3-n3nccn3)CC2)n1 [Example 3]	Fold Selectivity OX2R vs. OX1R	142
Cc1cc(C)nc(N2CCCN(C(=O)c3cccnc3OCC(F)(F)F)CC2)n1 [Example 1]	Fold Selectivity OX2R vs. OX1R	343
Cc1oc(N2CCCN(C(=O)c3ccccc3-n3cccn3)CC2)nc1C(C)(C)O [Example 20]	Fold Selectivity OX2R vs. OX1R	179
Cc1oc(N2CCCN(C(=O)c3ccc(F)cc3-n3nccn3)CC2)nc1C(C)(C)O [Example 18]	Fold Selectivity OX2R vs. OX1R	145

----------
// reported IC50 per item
Target: rat orexin-1 receptor (Rattus norvegicus)
Assay: OX1R FLIPR Ca flux assay (CHO cells)
Conditions: CHO cells expressing rat orexin-1 receptor; agonist 70 pM Ala-6,12 orexin-A
Measure: IC50 (µM)

Compound	Tested Target	Measure	Readout Number
CCOc1ccccc1C(=O)N1CCCN(c2nc(C(C)(C)O)c(C)o2)CC1 [Example 19]	rat orexin-1 receptor (Rattus norvegicus)	IC50	3.24
Cc1cc(C)nc(N2CCCN(C(=O)c3cccnc3OCC(F)(F)F)CC2)n1 [Example 1]	rat orexin-1 receptor (Rattus norvegicus)	IC50	6.17
Cc1oc(N2CCCN(C(=O)c3ccccc3-n3nccn3)CC2)nc1C(C)(C)O [Example 13]	rat orexin-1 receptor (Rattus norvegicus)	IC50	1.27

----------
Molecular target: rat orexin-1 receptor (Rattus norvegicus, UniProt P56718)
Sequence (P56718 1-416): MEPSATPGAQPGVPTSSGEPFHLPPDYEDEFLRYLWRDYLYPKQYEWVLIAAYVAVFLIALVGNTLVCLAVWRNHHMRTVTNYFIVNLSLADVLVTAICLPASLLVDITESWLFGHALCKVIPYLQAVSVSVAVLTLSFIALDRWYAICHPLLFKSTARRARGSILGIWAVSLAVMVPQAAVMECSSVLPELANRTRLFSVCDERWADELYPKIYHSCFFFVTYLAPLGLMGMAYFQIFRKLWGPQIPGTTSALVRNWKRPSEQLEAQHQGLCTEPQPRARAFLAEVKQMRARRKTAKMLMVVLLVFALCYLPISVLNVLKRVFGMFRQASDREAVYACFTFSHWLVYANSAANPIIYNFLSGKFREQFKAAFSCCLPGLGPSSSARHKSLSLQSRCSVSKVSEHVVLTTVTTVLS
Experiment: OX1R FLIPR Ca flux assay (CHO cells)
Details: CHO cells expressing rat orexin-1 receptor; agonist 70 pM Ala-6,12 orexin-A
pIC50: −log10 of the molar value.
// reported pIC50 per item

Molecule	Tested Target	pIC50
Cc1cc(C)nc(N2CCCN(C(=O)c3cccnc3-c3ccccc3)CC2)n1 [Example 11]	rat orexin-1 receptor (Rattus norvegicus, UniProt P56718)	< 5.00
Cc1cc(C)nc(N2CCCN(C(=O)c3ccccc3OC(F)F)CC2)n1 [Example 5]	rat orexin-1 receptor (Rattus norvegicus, UniProt P56718)	< 5.00
Cc1cc(C)nc(N2CCCN(C(=O)c3ccccc3-n3cccn3)CC2)n1 [Example 8]	rat orexin-1 receptor (Rattus norvegicus, UniProt P56718)	< 5.00
Cc1cc(C)nc(N2CCCN(C(=O)c3ccccc3OC(F)(F)F)CC2)n1 [Example 10]	rat orexin-1 receptor (Rattus norvegicus, UniProt P56718)	< 5.00
Cc1oc(N2CCCN(C(=O)c3cccnc3OCC(F)(F)F)CC2)nc1C(C)(C)O [Example 17]	rat orexin-1 receptor (Rattus norvegicus, UniProt P56718)	5.60
CC(C)(O)c1csc(N2CCCN(C(=O)c3ccccc3OC(F)(F)F)CC2)n1 [Example 24]	rat orexin-1 receptor (Rattus norvegicus, UniProt P56718)	< 5.00
CC(C)(O)c1csc(N2CCCN(C(=O)c3ccc(F)cc3-n3nccn3)CC2)n1 [Example 26]	rat orexin-1 receptor (Rattus norvegicus, UniProt P56718)	< 5.00
Cc1cc(C)nc(N2CCCN(C(=O)c3ccccc3-n3nccn3)CC2)n1 [Example 2]	rat orexin-1 receptor (Rattus norvegicus, UniProt P56718)	5.57
CC(C)(O)c1csc(N2CCCN(C(=O)c3cccnc3OCC(F)F)CC2)n1 [Example 22]	rat orexin-1 receptor (Rattus norvegicus, UniProt P56718)	< 5.00
Cc1cc(C)nc(N2CCCN(C(=O)c3cccnc3OCC(F)F)CC2)n1 [Example 6]	rat orexin-1 receptor (Rattus norvegicus, UniProt P56718)	< 5.00
CC(C)(O)c1csc(N2CCCN(C(=O)c3ccccc3C3CC3)CC2)n1 [Example 25]	rat orexin-1 receptor (Rattus norvegicus, UniProt P56718)	< 5.00
Cc1oc(N2CCCN(C(=O)c3ccccc3OC(F)F)CC2)nc1C(C)(C)O [Example 12]	rat orexin-1 receptor (Rattus norvegicus, UniProt P56718)	5.40
Cc1cc(C)nc(N2CCCN(C(=O)c3cccnc3OC(C)C)CC2)n1 [Example 4]	rat orexin-1 receptor (Rattus norvegicus, UniProt P56718)	< 5.00
Cc1oc(N2CCCN(C(=O)c3cccnc3OCC(F)F)CC2)nc1C(C)(C)O [Example 16]	rat orexin-1 receptor (Rattus norvegicus, UniProt P56718)	5.43
